endpoint_name: melting point

For orientation, consider the following solved cases.
# compound, endpoint_name, observed_result
measured = [
    ("CC(C)OC(=O)c1[nH]c2cc(Nc3ccc(F)cc3F)ccc2c1COCc1ccc(C(F)(F)F)cc1 [Compound 16b]", "melting point", "149.7 to 152.5 °C"),
    ("CC(C)OC(=O)c1[nH]c2cc(Br)ccc2c1COCc1ccccc1F", "melting point", "154.6 to 158.9 °C"),
    ("O=C(O)c1[nH]c2cc(Nc3ccc(F)cc3F)ccc2c1COCc1ccc(C(F)(F)F)cc1 [Compound 17b]", "melting point", "157.3 to 160.5 °C"),
]

// fetch melting point given entry O=C(O)c1[nH]c2cc(Nc3ccc(F)cc3F)ccc2c1COCc1ccccc1F [Compound 20b]
178.5 to 181.8 °C
